Values compiled from ChEMBL document CHEMBL1132555.

Here we list molecules with their recorded IC50 when tested on Epidermal growth factor receptor (Homo sapiens).
Sequence (P00533 whole entry): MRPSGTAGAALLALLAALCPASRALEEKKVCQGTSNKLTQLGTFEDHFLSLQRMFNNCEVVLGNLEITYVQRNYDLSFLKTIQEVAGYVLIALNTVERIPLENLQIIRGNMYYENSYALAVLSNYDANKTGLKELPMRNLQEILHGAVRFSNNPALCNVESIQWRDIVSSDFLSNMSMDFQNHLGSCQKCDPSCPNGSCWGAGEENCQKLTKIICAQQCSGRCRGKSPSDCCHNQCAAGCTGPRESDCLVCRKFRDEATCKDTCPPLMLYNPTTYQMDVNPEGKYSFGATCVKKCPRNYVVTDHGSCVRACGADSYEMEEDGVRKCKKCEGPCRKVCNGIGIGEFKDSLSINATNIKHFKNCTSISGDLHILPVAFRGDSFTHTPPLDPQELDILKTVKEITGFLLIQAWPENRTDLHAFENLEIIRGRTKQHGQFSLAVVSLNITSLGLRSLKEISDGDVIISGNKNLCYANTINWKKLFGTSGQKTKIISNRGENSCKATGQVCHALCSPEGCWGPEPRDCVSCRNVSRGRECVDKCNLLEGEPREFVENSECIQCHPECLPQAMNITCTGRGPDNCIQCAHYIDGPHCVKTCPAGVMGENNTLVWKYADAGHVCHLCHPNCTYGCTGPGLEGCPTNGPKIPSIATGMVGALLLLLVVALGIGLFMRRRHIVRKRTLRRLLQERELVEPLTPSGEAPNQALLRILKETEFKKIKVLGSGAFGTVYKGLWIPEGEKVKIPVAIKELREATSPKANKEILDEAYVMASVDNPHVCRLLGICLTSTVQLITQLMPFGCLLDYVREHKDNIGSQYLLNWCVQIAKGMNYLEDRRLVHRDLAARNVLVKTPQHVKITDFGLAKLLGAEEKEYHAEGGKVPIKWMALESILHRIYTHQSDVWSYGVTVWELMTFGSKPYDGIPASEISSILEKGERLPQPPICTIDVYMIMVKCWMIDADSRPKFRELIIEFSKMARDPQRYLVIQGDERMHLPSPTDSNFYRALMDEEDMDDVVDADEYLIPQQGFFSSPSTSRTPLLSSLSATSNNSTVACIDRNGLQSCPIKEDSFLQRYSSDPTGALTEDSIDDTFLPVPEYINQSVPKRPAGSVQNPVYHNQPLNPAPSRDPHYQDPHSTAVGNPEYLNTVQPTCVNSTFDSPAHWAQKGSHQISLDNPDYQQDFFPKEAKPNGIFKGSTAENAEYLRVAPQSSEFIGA
The answer is to be given in µM; state only the numeric part.

Looking for the measured IC50 of Brc1cccc(Nc2ncnc3cc4[nH]ccc4cc23)c1 , can you help?
0.00039

Looking for the measured IC50 of Nc1cccc2c1sc1c(Nc3cccc(Br)c3)ncnc12 , can you help?
0.0027

Looking for the measured IC50 of O=[N+]([O-])c1ccc2sc3c(Nc4cccc(C(F)(F)F)c4)ncnc3c2c1 , can you help?
0.46

Looking for the measured IC50 of Cn1c2ccccc2c2c(Nc3cccc(Br)c3)ncnc21 , can you help?
0.742

Looking for the measured IC50 of O=[N+]([O-])c1ccc2sc3c(Nc4ccccc4)ncnc3c2c1 , can you help?
0.058

Looking for the measured IC50 of CNc1ccc2sc3c(Nc4cccc(Br)c4)ncnc3c2c1 , can you help?
0.0011

Looking for the measured IC50 of COc1cccc2sc3c(Nc4cccc(Br)c4)ncnc3c12 , can you help?
0.02

Looking for the measured IC50 of Nc1ccc2sc3c(Nc4cccc(C(F)(F)F)c4)ncnc3c2c1 , can you help?
0.047

Looking for the measured IC50 of Nc1cc2sc3c(Nc4cccc(Br)c4)ncnc3c2cc1F , can you help?
0.001

Looking for the measured IC50 of COc1cccc2c1sc1c(Nc3cccc(Br)c3)ncnc12 , can you help?
0.0126

Looking for the measured IC50 of Brc1cccc(Nc2ncnc3sccc23)c1 , can you help?
0.035

Looking for the measured IC50 of O=[N+]([O-])c1cccc2c1sc1c(Nc3cccc(Br)c3)ncnc12 , can you help?
0.158

Looking for the measured IC50 of C[C@H](Nc1ncnc2c1sc1ccccc12)c1ccccc1 , can you help?
0.538

Looking for the measured IC50 of O=[N+]([O-])c1ccc2c(c1)sc1c(Nc3cccc(Br)c3)ncnc12 , can you help?
0.048

Looking for the measured IC50 of CN(C)c1ccc2sc3c(Nc4cccc(Br)c4)ncnc3c2c1 , can you help?
0.0198

Looking for the measured IC50 of Cc1cccc(Nc2ncnc3c2sc2ccc(N)cc23)c1 , can you help?
0.0021

Looking for the measured IC50 of COc1cc2sc3c(Nc4cccc(Br)c4)ncnc3c2cc1OC , can you help?
0.444

Looking for the measured IC50 of Cc1cccc(Nc2ncnc3c2sc2ccc([N+](=O)[O-])cc23)c1 , can you help?
0.011
